These measurements were taken from PubChem BioAssay AID248.

System: L1210 leukemia ip in BDF1 mice, survival T/C
experimental.details: NCI In Vivo Anticancer Drug Screen. Data for tumor model L1210 Leukemia (intraperitoneal) in B6D2F1 (BDF1) mice
experimental.context: endpoint: mean survival time; dose: 100.0 mg/kg/injection; schedule: Q04DX003 (ip); vehicle: saline; higher = longer survival
Inconclusive results and toxic doses are left out. Peptide text beside a SMILES is read from it. * marks the point of attachment. Cbz = O=C(OCc1ccccc1)*; Boc = CC(C)(C)OC(=O)*

{"compound": "COC1OC(CN(CCCl)C(C)=O)C2OC(C)(C)OC12 (stereo unspecified)", "target.of.assay": "L1210 leukemia ip in BDF1 mice, survival T/C", "T/C": "94 % of control"}
{"compound": "CN(C)CC/C=C1/c2ccccc2COc2ccccc21", "target.of.assay": "L1210 leukemia ip in BDF1 mice, survival T/C", "T/C": "93 % of control"}
{"compound": "CCOC(=O)C(C#N)=C(C)C", "target.of.assay": "L1210 leukemia ip in BDF1 mice, survival T/C", "T/C": "97 % of control"}
{"compound": "OCC(CO)(CO)CBr", "target.of.assay": "L1210 leukemia ip in BDF1 mice, survival T/C", "T/C": "103 % of control"}
{"compound": "COC(=O)CNC(=O)CNC(=O)OCc1ccccc1 (Cbz-Gly-Gly-OMe)", "target.of.assay": "L1210 leukemia ip in BDF1 mice, survival T/C", "T/C": "102 % of control"}
{"compound": "COc1cc2ccc3c(c2cc1OC)CNCC3", "target.of.assay": "L1210 leukemia ip in BDF1 mice, survival T/C", "T/C": "116 % of control"}
{"compound": "O=c1nc2n(CCC[N+](=O)[O-])c3ccccc3nc-2c(=O)[nH]1", "target.of.assay": "L1210 leukemia ip in BDF1 mice, survival T/C", "T/C": "88 % of control"}
{"compound": "CN(C)CCOC(=O)c1ccc(N)cc1", "target.of.assay": "L1210 leukemia ip in BDF1 mice, survival T/C", "T/C": "96 % of control"}
{"compound": "CC(=O)c1cccc(N)c1", "target.of.assay": "L1210 leukemia ip in BDF1 mice, survival T/C", "T/C": "95 % of control"}
{"compound": "C#CC(C)(C)OCC1CO1 (stereo unspecified)", "target.of.assay": "L1210 leukemia ip in BDF1 mice, survival T/C", "T/C": "108 % of control"}
{"compound": "NCc1ccccc1F", "target.of.assay": "L1210 leukemia ip in BDF1 mice, survival T/C", "T/C": "107 % of control"}
{"compound": "O=C1C=CN(C2OC(CO)C(O)C2O)C(=O)C1 (stereo unspecified)", "target.of.assay": "L1210 leukemia ip in BDF1 mice, survival T/C", "T/C": "108 % of control"}
{"compound": "Cc1cc(=O)[nH][nH]c1=O", "target.of.assay": "L1210 leukemia ip in BDF1 mice, survival T/C", "T/C": "94 % of control"}
{"compound": "CC(C)CC(NC(=O)OC(C)(C)C)C(=O)NC(Cc1c[nH]c2ccccc12)C(=O)N1CCCC1C(=O)NCC(N)=O (stereo unspecified) (Boc-LWPG-NH2; configuration not given here)", "target.of.assay": "L1210 leukemia ip in BDF1 mice, survival T/C", "T/C": "93 % of control"}
{"compound": "CC1=CC(C)(C(Cl)(Cl)Cl)C=C/C1=N\\OC(C)C(=O)O (stereo unspecified)", "target.of.assay": "L1210 leukemia ip in BDF1 mice, survival T/C", "T/C": "106 % of control"}
{"compound": "CCNc1nc(C(F)(F)F)nc2[nH]ncc12", "target.of.assay": "L1210 leukemia ip in BDF1 mice, survival T/C", "T/C": "101 % of control"}
{"compound": "C#CCOC1CCCCO1 (stereo unspecified)", "target.of.assay": "L1210 leukemia ip in BDF1 mice, survival T/C", "T/C": "104 % of control"}
{"compound": "c1nc(N2CC2)c2cnn(C3CCCCO3)c2n1 (stereo unspecified)", "target.of.assay": "L1210 leukemia ip in BDF1 mice, survival T/C", "T/C": "100 % of control"}
{"compound": "CC(=O)NCCCC(=O)O", "target.of.assay": "L1210 leukemia ip in BDF1 mice, survival T/C", "T/C": "101 % of control"}
{"compound": "O=C1Nc2c(Cl)cccc2C1=O", "target.of.assay": "L1210 leukemia ip in BDF1 mice, survival T/C", "T/C": "96 % of control"}
{"compound": "Cc1ccc[n+]([O-])c1Cl", "target.of.assay": "L1210 leukemia ip in BDF1 mice, survival T/C", "T/C": "100 % of control"}
{"compound": "COC(=O)c1ccccc1N=NNc1ccc2c(=O)c3ccccc3[nH]c2c1", "target.of.assay": "L1210 leukemia ip in BDF1 mice, survival T/C", "T/C": "95 % of control"}
{"compound": "CN(C)Cc1ccc([N+](=O)[O-])cc1", "target.of.assay": "L1210 leukemia ip in BDF1 mice, survival T/C", "T/C": "95 % of control"}
{"compound": "CC(=O)CCCN(CCO)CCO", "target.of.assay": "L1210 leukemia ip in BDF1 mice, survival T/C", "T/C": "96 % of control"}
{"compound": "COc1cc(N2CCOCC2)ccc1N", "target.of.assay": "L1210 leukemia ip in BDF1 mice, survival T/C", "T/C": "103 % of control"}
{"compound": "O=C(O)c1ccc(C(=O)c2ccccc2C(=O)O)cc1", "target.of.assay": "L1210 leukemia ip in BDF1 mice, survival T/C", "T/C": "102 % of control"}
{"compound": "CC(NC(=O)c1ccccc1)C(=O)NC(CSC(c1ccccc1)c1ccccc1)C(=O)O (stereo unspecified)", "target.of.assay": "L1210 leukemia ip in BDF1 mice, survival T/C", "T/C": "94 % of control"}
{"compound": "OC1OC(CCl)C(Cl)C(O)C1O (stereo unspecified)", "target.of.assay": "L1210 leukemia ip in BDF1 mice, survival T/C", "T/C": "106 % of control"}
{"compound": "CCN(CC)C(=S)S", "target.of.assay": "L1210 leukemia ip in BDF1 mice, survival T/C", "T/C": "103 % of control"}
{"compound": "Cc1nc(Cl)c(C#N)c(C)c1[N+](=O)[O-]", "target.of.assay": "L1210 leukemia ip in BDF1 mice, survival T/C", "T/C": "95 % of control"}
{"compound": "CC(=O)NC1=C(S(=O)(=O)O)c2ccccc2C1", "target.of.assay": "L1210 leukemia ip in BDF1 mice, survival T/C", "T/C": "104 % of control"}
